Provenance of the data: ChEMBL document CHEMBL6078629

Consider the following compounds and their measured clearance readings.
- Test: Clearance in CD-1 mouse at 2 mg/kg, iv by LC-MS/MS analysis
- Format: ADME, organism-based
- Experimental Parameters: in vivo
Respond with the bare value in mL/min/kg.

[
  {
    "Compound String": "Cc1cc2c(C(N)=O)c(N)n(-c3c(C)ccc(O)c3C)c2nc1C",
    "Unit Info": "mL/min/kg",
    "clearance": 46.5
  }
]

Pending compound:
*Q* Query: clearance; subject: Cc1cc2c(C(N)=O)c(N)n(-c3c(C)c(O)cc(F)c3C)c2nc1C
*A* 94.4

* * *

- Test: Half life in […] at 2 mg/kg, iv
- Format: ADME, organism-based
- Experimental Parameters: in vivo
Property Label: half-life (h)
Respond with the bare value in h.

[
  {
    "Compound String": "Cc1cc2c(C(N)=O)c(N)n(-c3c(C)c(O)cc(F)c3C)c2nc1C",
    "Property Label": "half-life",
    "Recorded Measurement": 0.56
  }
]

Pending compound:
*Q* Query: half-life; subject: Cc1cc2c(C(N)=O)c(N)n(-c3c(C)ccc(O)c3C)c2nc1C
*A* 3.32
